Assay: NCI Yeast Anticancer Drug Screen. Data for the cln2 rad14 strain (AID 165)
Conditions: S. cerevisiae cln2 rad14 strain, at 5.0 µM (retest, dose inferred, filed as 0.5)
Compounds without any hit were thinned out: in the full panel of roughly 79,000, 15% have a hit. Activity calls are given as the source filed them. Cut-off read from the data, not from the text of the source: active = growth inhibition above about 70%; inactive = the rest.
Classes used: active, inactive

>  <Compound>
CN(C)CCCC(=O)OCC[N+](C)(C)C

>  <Category Label>
inactive

$$$$
>  <Compound>
Cc1cccc2c1Oc1cc(Cl)ccc1C2NC(=O)CCN1CCN(CCO)CC1 (stereo unspecified)

>  <Category Label>
inactive

$$$$
>  <Compound>
CCCCOC(=O)c1ccc(O)c(OC)c1

>  <Category Label>
inactive

$$$$
>  <Compound>
NC(=O)N/N=C1/CC2CCCCC2c2ccccc21 (stereo unspecified)

>  <Category Label>
inactive

$$$$
>  <Compound>
Cc1ccccc1NC(=O)c1cc2cc(N=Nc3ccccc3C(=O)O)ccc2oc1=O

>  <Category Label>
inactive

$$$$
>  <Compound>
O=C(O)/C=C/c1c2ccccc2cc2ccccc12

>  <Category Label>
inactive

$$$$
>  <Compound>
O=C(O/N=C(/Cc1ccccc1)c1ccccc1)c1ccccc1

>  <Category Label>
inactive

$$$$
>  <Compound>
O=S(=O)(c1ccccc1)n1cc(C[P+](c2ccccc2)(c2ccccc2)c2ccccc2)c2ccccc21

>  <Category Label>
inactive

$$$$
>  <Compound>
O=C(CC1(O)CCCCC1)OC1CCCC1

>  <Category Label>
inactive

$$$$
>  <Compound>
Cn1cccc1C(/C=C/c1ccccc1[N+](=O)[O-])c1cccn1C

>  <Category Label>
inactive

$$$$
>  <Compound>
Cc1c[n+](CC(=O)c2ccc(I)cc2)c(C)s1

>  <Category Label>
inactive

$$$$
>  <Compound>
CC1C(CCC(=O)O)OC2CC3C4CCC5CC(O)CCC5(C)C4CCC3(C)C21 (stereo unspecified)

>  <Category Label>
inactive

$$$$
>  <Compound>
C/C(=N\NC(=O)c1ccc([N+](=O)[O-])cc1)c1ccccc1

>  <Category Label>
inactive

$$$$
>  <Compound>
CCCCCCCCCCCCCCCCCC(=O)OCCN1C(=O)c2ccccc2C1=O

>  <Category Label>
inactive

$$$$
>  <Compound>
CCC(CC)=NNc1ccc([N+](=O)[O-])cc1

>  <Category Label>
inactive

$$$$
>  <Compound>
CC(=O)SC1C(=O)N(C)C(SC(C)=O)C(=O)N1C (stereo unspecified)

>  <Category Label>
inactive

$$$$
>  <Compound>
CC1=CC2N(C=C1)C(c1ccccc1)=NON2c1cc(C)ccn1 (stereo unspecified)

>  <Category Label>
inactive

$$$$
>  <Compound>
CCCCCCCCCCSCCO

>  <Category Label>
active

$$$$
>  <Compound>
CCOCCNc1ncnc2c1cnn2C

>  <Category Label>
inactive

$$$$
>  <Compound>
CC(=O)OC(OC(C)=O)c1ccc2ccc3cccc4ccc1c2c34

>  <Category Label>
inactive

$$$$
>  <Compound>
CCCCCN(CCCCC)CCNc1ccc(C)c2sc3ccccc3c(=O)c12

>  <Category Label>
inactive

$$$$
>  <Compound>
C=C1CC(Cn2cc(C)c(=O)[nH]c2=O)(c2ccc(Cl)cc2)OC1=O (stereo unspecified)

>  <Category Label>
inactive

$$$$
>  <Compound>
O=[N+]([O-])C(=C1Nc2ccccc2N1)C(Cl)=C(Cl)Cl

>  <Category Label>
inactive

$$$$
>  <Compound>
S=C(N/N=C1/CCCC/C1=N/NC(=S)N1CCOCC1)N1CCOCC1

>  <Category Label>
inactive

$$$$
>  <Compound>
Cc1cccc2c1Oc1ccccc1C2N1C(=O)/C(=C/c2ccccc2Cl)SC1=S (stereo unspecified)

>  <Category Label>
active

$$$$
>  <Compound>
CCCCCCCCCCCCNC(=O)c1cc[n+](Cc2ccc(Cl)c(Cl)c2)cc1

>  <Category Label>
active

$$$$
>  <Compound>
CNc1ccc(N=O)cc1

>  <Category Label>
inactive

$$$$
>  <Compound>
CCCCCCCCCCCCCCC(O)C[N+](C)(CCO)CCO (stereo unspecified)

>  <Category Label>
inactive

$$$$
>  <Compound>
O=C(CCCCCCCCCCc1ccccc1)c1ccc(Cl)cc1

>  <Category Label>
inactive

$$$$
>  <Compound>
CCc1c(O)c(O)c(C(C)=O)c2c(O)c(-c3c(C)cc4c(CC)c(O)c(O)c(C(C)=O)c4c3O)c(C)cc12

>  <Category Label>
inactive

$$$$
>  <Compound>
O=C(Cc1ccccc1)NNc1nc(NNC(=O)c2ccncc2)nc(Nc2ccccc2)n1

>  <Category Label>
inactive

$$$$
>  <Compound>
COc1ccc2c(c1)Cc1ccccc1C2=O

>  <Category Label>
inactive

$$$$
>  <Compound>
C=Cc1cc(=O)oc2cc(OC)ccc12

>  <Category Label>
inactive

$$$$
>  <Compound>
O=C1C=C(O)c2cc(Br)ccc2C1=O.[Ag]

>  <Category Label>
active

$$$$
>  <Compound>
NCCCN1c2ccccc2Sc2ccc(Cl)cc21

>  <Category Label>
inactive

$$$$
>  <Compound>
CN(C)C(=S)/N=c1\sn(C)/c(=N\C(=S)N(C)C)n1C

>  <Category Label>
inactive

$$$$

---

Assay: NCI Yeast Anticancer Drug Screen. Data for the mec2-1 strain (AID 157)
Conditions: S. cerevisiae mec2-1 strain, at 50.0 µM, active compounds read high
Compounds without any hit were thinned out: in the full panel of roughly 79,000, 15% have a hit.
Is growth inhibition at least 70%? Then true. If not, false.

>  <Compound>
CCCCCCCCCCCCC1N=C(N)N2CCCC2=C1C(=O)OC (stereo not drawn)

>  <Category Label>
true

$$$$
>  <Compound>
O=C1C=CC(=Nc2cccc3c2-c2ccccc2C3)O1

>  <Category Label>
true

$$$$
>  <Compound>
COc1ccccc1NC(c1ccccc1)c1ccc2cccnc2c1O (stereo not drawn)

>  <Category Label>
false

$$$$
>  <Compound>
O=C1C(Cl)=C(N2C(=O)CCC2=O)C(=O)c2ccccc21

>  <Category Label>
true

$$$$
>  <Compound>
O=c1[nH]cc(F)c(=O)n1C1CCCCO1 (stereo not drawn)

>  <Category Label>
false

$$$$
>  <Compound>
Cc1nc(-c2ccccc2)nc2c1nc(C(C)C)n2Nc1ccccc1

>  <Category Label>
false

$$$$
>  <Compound>
O=c1c2c3ccccc3[nH]c2c2cccc3c2n1CCC3

>  <Category Label>
true

$$$$
>  <Compound>
CCCCCCC1CCC(CCCCCCCC(=O)N2CCN(C)CC2)C(C/C=C/CCCCCCCC(=O)N2CCN(C)CC2)C1CCCCC (stereo not drawn)

>  <Category Label>
true

$$$$
>  <Compound>
COc1ccc2nc(-c3ccc(Cl)cc3)[nH]c2c1

>  <Category Label>
true

$$$$
>  <Compound>
COc1cc[c]([Sn]([O][Sn]([Cl])([c]2ccc(OC)cc2)[c]2ccc(OC)cc2)[c]2ccc(OC)cc2)cc1

>  <Category Label>
false

$$$$
>  <Compound>
C1=NC2c3ccccc3Cc3cccc1c32 (stereo not drawn)

>  <Category Label>
true

$$$$
>  <Compound>
COc1c(O)cc(C=O)cc1[N+](=O)[O-]

>  <Category Label>
false

$$$$
>  <Compound>
O=C1OCCCN1/N=C/c1ccc([N+](=O)[O-])o1

>  <Category Label>
false

$$$$
>  <Compound>
Cn1cnc([N+](=O)[O-])c1Sc1ccc(Cl)cc1

>  <Category Label>
true

$$$$
>  <Compound>
Cc1c[nH]c(=O)n(CC(=O)C2CCC3C4CCC5=CC(=O)CCC5(C)C4CCC23C)c1=O (stereo not drawn)

>  <Category Label>
false

$$$$
>  <Compound>
CCCCc1cc2c(cc1O)CCC1C2CC[C@@]2(C)C1CC[C@@H]2O (stereo partly drawn)

>  <Category Label>
true

$$$$
>  <Compound>
O=C(c1ccc(Cl)cc1)C1N=NCC1c1ccccc1 (stereo not drawn)

>  <Category Label>
false

$$$$
>  <Compound>
CCCCCCCCCCCCCCCC[N+](C)(C)CCCCCC(=O)OC

>  <Category Label>
true

$$$$

---

Assay: NCI Yeast Anticancer Drug Screen. Data for the bub3 strain (AID 167)
Conditions: S. cerevisiae bub3 mutant strain, at 50.0 µM, active compounds read high
This is part of a sample that, as a whole, favours compounds with a hit. Of some 79,000 tested, about 15% had one in any assay.
Is growth inhibition at least 90%? Then Yes. If not, No.

>  <Compound>
O=C(Nc1ccccc1-c1nn(CN2CCNCC2)c(=S)n(CN2CCNCC2)c1=O)C(F)(F)F

>  <Category Label>
No

$$$$
>  <Compound>
CCCCN1C(=O)C(=O)N(c2ccccc2)C1=O

>  <Category Label>
No

$$$$
>  <Compound>
COc1ccccc1/C=C(\NC(=O)c1ccccc1)c1nc2ccccc2[nH]1

>  <Category Label>
Yes

$$$$
>  <Compound>
N#CCCN(C(=S)Nc1cccc(C(F)(F)F)c1)C1CCCCC1

>  <Category Label>
No

$$$$
>  <Compound>
O=C(O)C1(Cc2ccc3c(c2)CCC3)Cc2cc3c(cc2C1)CCC3

>  <Category Label>
No

$$$$
>  <Compound>
O=c1c2cccc3cccc(c4oc5c6cccc7cccc(c(=O)c5c14)c76)c32

>  <Category Label>
Yes

$$$$
>  <Compound>
CN(C)CC1CCC/C(=C\c2ccc(Cl)c(Cl)c2)C1=O (centres undefined)

>  <Category Label>
No

$$$$
>  <Compound>
N#CC1C2CCC3(CC2CCN1C(=O)c1ccccc1)OCCO3 (centres undefined)

>  <Category Label>
No

$$$$
>  <Compound>
CC(=O)OCCSCCOC(C)=O

>  <Category Label>
No

$$$$
>  <Compound>
Cc1ccccc1NC(=O)c1cc2cc(N=Nc3ccccc3C(=O)O)ccc2oc1=O

>  <Category Label>
No

$$$$
>  <Compound>
CC(OC(=O)Nc1cccc(Cl)c1)c1ccccc1 (centres undefined)

>  <Category Label>
Yes

$$$$
>  <Compound>
O=C1/C(=C/c2cccc(O)c2)COc2ccccc21

>  <Category Label>
Yes

$$$$
>  <Compound>
CCC[CH2][Sn]([CH2]CCC)([O]C(=O)c1cc(OC)c(OC)cc1OC)[O]C(=O)c1cc(OC)c(OC)cc1OC

>  <Category Label>
No

$$$$
>  <Compound>
CN(c1ccccc1)c1c2c(oc(=O)c1Cl)-c1ccccc1SC2

>  <Category Label>
Yes

$$$$
>  <Compound>
CCCCC(Oc1cc(C(C)(C)C)c(O)c(C(C)(C)C)c1)C(=O)O (centres undefined)

>  <Category Label>
Yes

$$$$
>  <Compound>
CCOC(=O)c1c(Cl)nc2ccccc2c1N=[N+]=[N-]

>  <Category Label>
No

$$$$
>  <Compound>
CCc1ccccc1NC(=O)C(=O)C(C#N)c1c(Cl)cccc1Cl (centres undefined)

>  <Category Label>
No

$$$$
>  <Compound>
O=c1cccc(C2CCc3cc(O)ccc3C2)[nH]1 (centres undefined)

>  <Category Label>
No

$$$$
>  <Compound>
CN(C)C(N)=NC#N

>  <Category Label>
No

$$$$
>  <Compound>
CC(C)(C)c1ccc2c(c1)C(O)(c1ccccc1)C1OC1(C(C)(C)C)C2=O (centres undefined)

>  <Category Label>
Yes

$$$$
